- system under test: 17-beta-hydroxysteroid dehydrogenase type 3 (Rattus norvegicus)
- Sequence (whole entry): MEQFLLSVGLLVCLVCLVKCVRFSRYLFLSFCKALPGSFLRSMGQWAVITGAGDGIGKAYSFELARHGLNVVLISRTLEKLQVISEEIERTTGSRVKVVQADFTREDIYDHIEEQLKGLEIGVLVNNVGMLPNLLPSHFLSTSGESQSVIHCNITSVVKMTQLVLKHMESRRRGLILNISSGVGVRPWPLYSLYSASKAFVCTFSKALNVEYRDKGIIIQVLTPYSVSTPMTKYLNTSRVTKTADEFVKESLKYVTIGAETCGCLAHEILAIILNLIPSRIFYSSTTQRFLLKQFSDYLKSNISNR
- test protocol: Inhibition of 17beta-HSD3 in rat testes microsomal fraction using [14C]-4-androstene-3,17-dione as substrate assessed as testosterone formation at 0.1 uM after 2 hrs by thin layer chromatography
- Format: microsomes
- settings: Testis
Each record here notes measured inhibition.
Answer in %, number only, no unit symbol.

C[C@]12CC[C@@]3(C[C@@H]1CC[C@@H]1[C@@H]2CC[C@]2(C)C(=O)CC[C@@H]12)CN(Cc1ccccc1)[C@@H](Cc1ccccc1)C(=O)O3 | 58.2
O=C1OC2(CCCCC2)CN[C@H]1Cc1ccccc1 | 6.2
C[C@]12CC[C@]3(CN[C@@H](Cc4ccccc4)C(=O)O3)C[C@@H]1CC[C@@H]1[C@@H]2CC[C@]2(C)C(=O)CC[C@@H]12 | 48.8

Please look at the following molecule next.
Query string: Recall and state the measured inhibition for O=C1OC2(CCCCC2)CN(Cc2ccccc2)[C@H]1Cc1ccccc1 .
Result string: 24.2

* * *

- system under test: 17-beta-hydroxysteroid dehydrogenase type 3 (Rattus norvegicus)
- test protocol: Inhibition of 17beta-HSD3 in rat testes microsomal fraction using [14C]-4-androstene-3,17-dione as substrate assessed as testosterone formation at 0.1 uM after 2 hrs by thin layer chromatography
- Type: microsomes
- settings: Testis
endpoint: inhibition (%)
Answer in %, number only, no unit symbol.

C[C@]12CC[C@]3(CN[C@H](Cc4ccccc4)C(=O)O3)C[C@@H]1CC[C@@H]1[C@@H]2CC[C@]2(C)C(=O)CC[C@@H]12 | 18.5

Query string: Recall and state the measured inhibition for CC1CN(S(=O)(=O)c2ccccc2C(F)(F)F)C(C)CN1C[C@@]1(O)CC[C@@]2(C)[C@@H](CC[C@@H]3[C@@H]2CC[C@]2(C)C(=O)CC[C@@H]32)C1 (stereo partly drawn) .
Result string: 47.3

Query string: Recall and state the measured inhibition for C[C@]12CC[C@@]3(C[C@@H]1CC[C@@H]1[C@@H]2CC[C@]2(C)C(=O)CC[C@@H]12)CN(Cc1ccccc1)[C@H](Cc1ccccc1)C(=O)O3 .
Result string: 25.6

* * *

- system under test: 17-beta-hydroxysteroid dehydrogenase type 3 (Rattus norvegicus) (UniProt O54939)
- Sequence (whole entry): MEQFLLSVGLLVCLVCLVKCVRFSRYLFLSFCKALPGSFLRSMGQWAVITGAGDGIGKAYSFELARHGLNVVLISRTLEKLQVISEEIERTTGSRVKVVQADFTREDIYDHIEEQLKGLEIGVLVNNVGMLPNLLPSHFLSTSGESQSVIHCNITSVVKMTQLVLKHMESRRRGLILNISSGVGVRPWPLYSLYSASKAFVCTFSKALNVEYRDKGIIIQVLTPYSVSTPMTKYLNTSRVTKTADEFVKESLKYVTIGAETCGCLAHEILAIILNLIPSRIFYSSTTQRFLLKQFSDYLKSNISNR
- test protocol: Inhibition of 17beta-HSD3 in rat testes microsomal fraction using [14C]-4-androstene-3,17-dione as substrate assessed as testosterone formation at 1 uM after 2 hrs by thin layer chromatography
- Assay type: microsomes
- settings: Testis
endpoint: inhibition (%)
Answer in %, number only, no unit symbol.

These recorded examples may help you get a feel for the data.
C[C@]12CC[C@@]3(C[C@@H]1CC[C@@H]1[C@@H]2CC[C@]2(C)C(=O)CC[C@@H]12)CN(Cc1ccccc1)[C@H](Cc1ccccc1)C(=O)O3 | 87.3
O=C1OC2(CCCCC2)CN(Cc2ccccc2)[C@H]1Cc1ccccc1 | 24.3
C[C@]12CC[C@]3(CN[C@@H](Cc4ccccc4)C(=O)O3)C[C@@H]1CC[C@@H]1[C@@H]2CC[C@]2(C)C(=O)CC[C@@H]12 | 92
C[C@]12CC[C@]3(CN[C@H](Cc4ccccc4)C(=O)O3)C[C@@H]1CC[C@@H]1[C@@H]2CC[C@]2(C)C(=O)CC[C@@H]12 | 63.2
O=C1OC2(CCCCC2)CN[C@H]1Cc1ccccc1 | 19.5

Please look at the following compound next.
Query string: Recall and state the measured inhibition for C[C@]12CC[C@@]3(C[C@@H]1CC[C@@H]1[C@@H]2CC[C@]2(C)C(=O)CC[C@@H]12)CN(Cc1ccccc1)[C@@H](Cc1ccccc1)C(=O)O3 .
Result string: 90.4

Reference for the values: ChEMBL document CHEMBL3085755
